target: Substance-P receptor (rabbit); experiment: In vitro binding affinity towards Tachykinin receptor 1 to displace [3H][Sar9Met(O2)11]-SP (1 nM) binding to rabbit whole brain membranes
Listed below: IC50 values for each entry.

Example entries begin here.
>  <compound_structure_string>
O=C(NC(c1ccccc1)c1ccccc1)[C@@H]1CCCN1C(=S)NCc1ccccc1

>  <target_or_system>
Substance-P receptor (rabbit)

>  <IC50>
> 5 µM

$$$$
>  <compound_structure_string>
COc1ccccc1CNC(=NC#N)N1CCC[C@H]1C(=O)NC(c1ccccc1)c1ccccc1

>  <target_or_system>
Substance-P receptor (rabbit)

>  <IC50>
> 50 µM

$$$$
>  <compound_structure_string>
COc1ccccc1COC(=O)N1CCC[C@H]1C(=O)NC(c1ccccc1)c1ccccc1

>  <target_or_system>
Substance-P receptor (rabbit)

>  <IC50>
> 50 µM

$$$$

Requested field: IC50. Item: COc1ccccc1CNC(=S)N1CCC[C@H]1C(=O)NCC(c1ccccc1)c1ccccc1
> 5 µM

Could you tell me which IC50 is on file for COc1ccccc1CNC(=S)N1CCC[C@@H]1C(=O)NC(c1ccccc1)c1ccccc1 ?
> 5 µM

Endpoint output: IC50 of COc1ccccc1CNC(=S)N1CCC[C@H]1C(=O)N(Cc1ccccc1)Cc1ccccc1 . Value?
> 50 µM

May I ask what IC50 has been recorded for Nc1ccccc1CNC(=S)N1CCC[C@H]1C(=O)NC(c1ccccc1)c1ccccc1 ?
> 50 µM

----------
biological target: Substance-P receptor (rabbit); test: In vitro binding affinity towards Tachykinin receptor 1 to displace [3H][Sar9Met(O2)11]-SP (1 nM) binding to rabbit whole brain membranes
value_kind: Ki (nM)
State just the number; it will be interpreted in nM.

A selection of reference data follows.
>  <compound_structure_string>
O=C(NC(c1ccccc1)c1ccccc1)[C@@H]1CCCN1C(=S)NCc1ccccc1F

>  <Ki [nM]>
1270

$$$$
>  <compound_structure_string>
COc1ccccc1CNC(=S)N1CCC[C@H]1C(=O)N[C@H](Cc1ccccc1)C(=O)N(C)Cc1ccccc1

>  <Ki [nM]>
1280

$$$$
>  <compound_structure_string>
COc1ccccc1CNC(=S)N1CCC[C@H]1C(=O)NC(c1ccccc1)c1ccccc1

>  <Ki [nM]>
330

$$$$

Please report the recorded Ki for COc1ccccc1CNC(=S)N1CCC[C@H]1C(=O)N[C@@H](Cc1ccccc1)C(=O)N(C)Cc1ccccc1 .
260

May I ask what Ki has been recorded for O=C(NC(c1ccccc1)c1ccccc1)[C@@H]1CCCN1C(=S)NCc1ccccc1Cl ?
170

May I ask what Ki has been recorded for O=C(NC(c1ccccc1)c1ccccc1)[C@@H]1CCCN1C(=S)NCc1ccccc1Br ?
170
